# assay-explanation: Inhibition of recombinant Escherichia coli RNA polymerase
pIC50: −log10 of the molar value.

| molecule-smiles | pIC50 |
| --- | --- |
| CCC/C(C)=C/C=C(\C)C(=O)c1c(O)cc([C@H](C)CC/C=C/NC(=O)OC)oc1=O | 4.62 |

###

# System: Escherichia coli
# assay-explanation: Antibacterial activity against Escherichia coli ATCC 25922 assessed as bacterial growth inhibition
# Type: functional
MIC for assorted molecules

| molecule-smiles | MIC |
| --- | --- |
| COc1ccc(-n2c3cssc-3c(NC(=O)CCCCCCC(=O)c3c(O)cc(C)oc3=O)c2=O)c(OC)c1 | > 128 µg/mL |
| COc1ccc(-n2c3cssc-3c(NC(=O)OCCOC(=O)CCCC(=O)c3c(O)cc(C)oc3=O)c2=O)c(OC)c1 | > 128 µg/mL |
| COc1ccc(-n2c3cssc-3c(NC(=O)NCCOC(=O)CCCC(=O)c3c(O)cc(C)oc3=O)c2=O)c(OC)c1 | > 64 µg/mL |
| O=C(O)c1cn(C2CC2)c2cc(N3CCNCC3)c(F)cc2c1=O | 0.00625 µg/mL |
| COc1ccc(-n2c3cssc-3c(NC(=O)OCCOC(=O)CCCCC(=O)c3c(O)cc(C)oc3=O)c2=O)c(OC)c1 | > 128 µg/mL |
| COc1ccc(-n2c3cssc-3c(NC(=O)N(C)CCOC(=O)CCCC(=O)c3c(O)cc(C)oc3=O)c2=O)c(OC)c1 | > 128 µg/mL |
| CN[C@H](CC(C)C)C(=O)N[C@H]1C(=O)N[C@@H](CC(N)=O)C(=O)N[C@H]2C(=O)N[C@H]3C(=O)N[C@H](C(=O)N[C@H](C(=O)O)c4cc(O)cc(O)c4-c4cc3ccc4O)[C@H](O)c3ccc(c(Cl)c3)Oc3cc2cc(c3O[C@@H]2O[C@H](CO)[C@@H](O)[C@H](O)[C@H]2O[C@H]2C[C@](C)(N)[C@H](O)[C@H](C)O2)Oc2ccc(cc2Cl)[C@H]1O | > 128 µg/mL |
| COc1ccc(-n2c3cssc-3c(NC(=O)N(C)CCOC(=O)CCCCC(=O)c3c(O)cc(C)oc3=O)c2=O)c(OC)c1 | > 128 µg/mL |
| COc1ccc(-n2c3cssc-3c(NC(=O)N(C)CCOC(=O)CCCCCCC(=O)c3c(O)cc(C)oc3=O)c2=O)c(OC)c1 | > 64 µg/mL |
| CO[C@H]1/C=C/O[C@@]2(C)Oc3c(C)c(O)c4c(O)c(c(/C=N/N5CCN(C)CC5)c(O)c4c3C2=O)NC(=O)/C(C)=C\C=C\[C@H](C)[C@H](O)[C@@H](C)[C@@H](O)[C@@H](C)[C@H](OC(C)=O)[C@@H]1C | 8 µg/mL |
| COc1ccc(-n2c3cssc-3c(NC(=O)OCCOC(=O)CCCCCCC(=O)c3c(O)cc(C)oc3=O)c2=O)c(OC)c1 | > 128 µg/mL |

###

# System: HepG2
# assay-explanation: Cytotoxicity against human HepG2 cells assessed as reduction in cell viability by MTT assay
# Format: cell-based
pIC50: −log10 of the molar value.
pIC50 for assorted compounds

| molecule-smiles | target-under-test | pIC50 |
| --- | --- | --- |
| CO[C@H]1/C=C/O[C@@]2(C)Oc3c(C)c(O)c4c(O)c(c(/C=N/N5CCN(C)CC5)c(O)c4c3C2=O)NC(=O)/C(C)=C\C=C\[C@H](C)[C@H](O)[C@@H](C)[C@@H](O)[C@@H](C)[C@H](OC(C)=O)[C@@H]1C | HepG2 | 3.84 |
| COc1ccc(-n2c3cssc-3c(NC(=O)N(C)CCOC(=O)CCCCC(=O)c3c(O)cc(C)oc3=O)c2=O)c(OC)c1 | HepG2 | 5.56 |
| COc1ccc(-n2c3cssc-3c(NC(=O)OCCOC(=O)CCCCCCC(=O)c3c(O)cc(C)oc3=O)c2=O)c(OC)c1 | HepG2 | 5.15 |
